experimental_system: human ether-à-go-go-related gene (hERG) potassium channel (human, UniProt Q12809);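 further: peak tail current of the secondary pulse compared with the same well before compound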
Sequence (Q12809 whole entry, looked up): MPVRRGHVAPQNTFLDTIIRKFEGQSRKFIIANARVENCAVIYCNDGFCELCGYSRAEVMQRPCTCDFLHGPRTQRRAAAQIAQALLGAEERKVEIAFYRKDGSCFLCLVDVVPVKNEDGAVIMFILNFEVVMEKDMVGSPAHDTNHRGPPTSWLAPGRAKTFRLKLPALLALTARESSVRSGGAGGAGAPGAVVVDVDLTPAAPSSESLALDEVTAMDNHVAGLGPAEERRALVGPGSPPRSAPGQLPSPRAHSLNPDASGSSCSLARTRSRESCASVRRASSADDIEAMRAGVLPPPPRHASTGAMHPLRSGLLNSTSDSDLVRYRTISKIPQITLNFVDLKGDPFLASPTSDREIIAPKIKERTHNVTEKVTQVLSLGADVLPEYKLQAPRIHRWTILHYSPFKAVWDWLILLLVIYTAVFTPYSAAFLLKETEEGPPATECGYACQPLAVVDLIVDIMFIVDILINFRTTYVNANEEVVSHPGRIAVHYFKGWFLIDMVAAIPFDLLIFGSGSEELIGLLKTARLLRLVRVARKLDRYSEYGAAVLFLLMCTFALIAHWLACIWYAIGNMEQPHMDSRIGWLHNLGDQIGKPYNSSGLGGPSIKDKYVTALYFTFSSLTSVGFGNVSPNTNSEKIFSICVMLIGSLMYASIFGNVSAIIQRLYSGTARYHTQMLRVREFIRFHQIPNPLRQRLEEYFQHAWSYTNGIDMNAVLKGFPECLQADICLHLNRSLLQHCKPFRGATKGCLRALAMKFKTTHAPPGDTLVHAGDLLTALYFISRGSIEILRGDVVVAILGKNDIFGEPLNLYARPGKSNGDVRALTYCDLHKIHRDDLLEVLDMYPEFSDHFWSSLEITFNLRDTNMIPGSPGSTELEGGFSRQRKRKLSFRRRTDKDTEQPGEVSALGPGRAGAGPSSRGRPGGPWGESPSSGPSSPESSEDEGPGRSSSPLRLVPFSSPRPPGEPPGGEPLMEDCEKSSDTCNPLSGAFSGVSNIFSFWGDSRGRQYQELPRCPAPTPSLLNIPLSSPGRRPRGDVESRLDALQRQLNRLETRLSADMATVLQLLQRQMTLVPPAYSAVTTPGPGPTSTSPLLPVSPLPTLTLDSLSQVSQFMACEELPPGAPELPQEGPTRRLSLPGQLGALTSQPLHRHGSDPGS
assay_name: primary screen, population patch clamp on CHO cells stably expressing hERG; higher = less effect of the substance
The campaign covered roughly 310,000 compounds. About 14,000 (4.5%) showed an effect of 50% or more. The effect is printed as a negative number. This is one part of a sample in which strong results are shown more often than they occur.
Give 1 when the value for hERG current change (%, negative = inhibition) at 10uM is at least -30%. Give -1 when it is less.

// known answers, use as guide
Task: Identify whether the reported hERG current change (%, negative = inhibition) at 10uM of the following molecule is -30% or greater: CCOC(=O)C1=C(C)NC(=S)NC1c1ccc(OCC(=O)N2CCCCCC2)c(OC)c1 (stereo not drawn)
Output: 1

Task: Identify whether the reported hERG current change (%, negative = inhibition) at 10uM of the following molecule is -30% or greater: COc1ccccc1/C=C/CN1CCCC(CCC(=O)NCc2ccc(F)c(F)c2)C1 (stereo not drawn)
Output: -1

Task: Identify whether the reported hERG current change (%, negative = inhibition) at 10uM of the following molecule is -30% or greater: COc1cccc(CNC(=O)CCC2CCCN(C(=O)Cc3ccccc3F)C2)c1 (stereo not drawn)
Output: 1

Task: Identify whether the reported hERG current change (%, negative = inhibition) at 10uM of the following molecule is -30% or greater: `CC(=O)Nc1nc(NC(=O)/C=C/c2ccccc2)n(-c2ccccc2)n1`
Output: 1

Task: Identify whether the reported hERG current change (%, negative = inhibition) at 10uM of the following molecule is -30% or greater: COc1ccc(CC(=O)NC(C)CCc2ccccc2)cc1 (stereo not drawn)
Output: 1

Task: Identify whether the reported hERG current change (%, negative = inhibition) at 10uM of the following molecule is -30% or greater: `Cc1ccc(NC(=O)CSc2nnc(-c3ccco3)o2)cc1`
Output: 1

Now take the following molecule into account.
Task: Identify whether the reported hERG current change (%, negative = inhibition) at 10uM of the following molecule is -30% or greater: CSc1ccc(C(=O)C2CCCN(Cc3cccn3-c3cccnc3)C2)cc1 (stereo not drawn)
Output: -1

###

experimental_system: human ether-à-go-go-related gene (hERG) potassium channel (human, UniProt Q12809);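 further: peak tail current of the secondary pulse compared with the same well before compound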
assay_name: primary screen, population patch clamp on CHO cells stably expressing hERG; higher = less effect of the substance
Protocol: Briefly, Chinese hamster ovary (CHO) cells stably expressing the hERG channel were dislodged from tissue culture flasks and dispensed into PPC plates. […] During the recording, background leak currents were estimated by a 100 ms step to -80 mV from an initial holding potential of -70 mV and subtracted from the subsequent current measurement. The campaign was conducted in two phases using slight differences in recording protocol. […]
Hit rate of the full screen: of about 310,000 compounds, about 14,000 (4.5%) showed an effect of 50% or more. The effect is printed as a negative number. Shown is part of a subset that was picked to be rich in strong results.
Give Met when the value for hERG current change (%, negative = inhibition) at 10uM is at least -20%. Give Not met when it is less.

// known answers, use as guide
Task: Identify whether the reported hERG current change (%, negative = inhibition) at 10uM of the following compound is -20% or greater: CN1C2CCC1CC(OC(=O)c1cc(Cl)cc(Cl)c1)C2.Cl (stereo not shown)
Output: Not met

Task: Identify whether the reported hERG current change (%, negative = inhibition) at 10uM of the following compound is -20% or greater: `COC(=O)c1cc2n(n1)CCN(Cc1ccc(C)cc1)C2=O`
Output: Met

Task: Identify whether the reported hERG current change (%, negative = inhibition) at 10uM of the following compound is -20% or greater: `CCOC(=O)c1ccccc1NC(=S)N1CCC(N2CCCCC2)CC1`
Output: Not met

Continuing:
Task: Identify whether the reported hERG current change (%, negative = inhibition) at 10uM of the following compound is -20% or greater: `S=C(NCCc1ccccc1)N1CCN(C23CC4CC(CC(C4)C2)C3)CC1`
Output: Not met

Task: Identify whether the reported hERG current change (%, negative = inhibition) at 10uM of the following compound is -20% or greater: `COCCNCCCCOc1ccccc1-c1ccccc1.O=C(O)C(=O)O`
Output: Not met

Task: Identify whether the reported hERG current change (%, negative = inhibition) at 10uM of the following compound is -20% or greater: `CC(C)c1nnc(NC(=O)c2ccc(S(=O)(=O)N3CCOCC3)cc2)s1`
Output: Met

Task: Identify whether the reported hERG current change (%, negative = inhibition) at 10uM of the following compound is -20% or greater: `Cc1cc2cc3c(cc2nc1SCC(=O)N1CCN(C(=O)c2ccco2)CC1)OCO3`
Output: Not met

Task: Identify whether the reported hERG current change (%, negative = inhibition) at 10uM of the following compound is -20% or greater: `O=S(=O)(Nc1cccc(-c2cn3cccnc3n2)c1)c1ccc(Cl)cc1`
Output: Met

Task: Identify whether the reported hERG current change (%, negative = inhibition) at 10uM of the following compound is -20% or greater: Cc1ccc2nc(-c3ccc(NC(=O)CN4C(=O)NC(C)(c5ccc(OC(F)F)cc5)C4=O)cc3)sc2c1 (stereo not shown)
Output: Met

Task: Identify whether the reported hERG current change (%, negative = inhibition) at 10uM of the following compound is -20% or greater: `COc1ccc(/C=C/C(=O)NC(=S)NNC(=O)c2ccco2)cc1`
Output: Met

Task: Identify whether the reported hERG current change (%, negative = inhibition) at 10uM of the following compound is -20% or greater: `O=S(=O)(c1ccc(Cl)cc1)c1nc(-c2ccco2)oc1N1CCCCC1`
Output: Met

Task: Identify whether the reported hERG current change (%, negative = inhibition) at 10uM of the following compound is -20% or greater: `O=C(Nc1ccc2nc(-c3ccccn3)c(-c3ccccn3)nc2c1)N1CCOCC1`
Output: Met

Task: Identify whether the reported hERG current change (%, negative = inhibition) at 10uM of the following compound is -20% or greater: `CCc1cc2ccc(OC)cc2nc1SCC(=O)N1CCN(C(=O)c2ccco2)CC1`
Output: Not met

Task: Identify whether the reported hERG current change (%, negative = inhibition) at 10uM of the following compound is -20% or greater: `CCc1cc2cc3c(cc2nc1SCC(=O)N1CCN(C(=O)c2ccco2)CC1)OCO3`
Output: Not met

Task: Identify whether the reported hERG current change (%, negative = inhibition) at 10uM of the following compound is -20% or greater: CN1C2CCC1CC(OC(=O)c1c[nH]c3ccccc13)C2.Cl (stereo not shown)
Output: Not met

Task: Identify whether the reported hERG current change (%, negative = inhibition) at 10uM of the following compound is -20% or greater: `CCc1cc2cc(C)cc(C)c2nc1SCC(=O)N1CCN(C(=O)c2ccco2)CC1`
Output: Met

Task: Identify whether the reported hERG current change (%, negative = inhibition) at 10uM of the following compound is -20% or greater: `COC(=O)CN1C(=O)[C@H]2[C@@H](c3ccc(C)o3)N3C(=O)CN(Cc4ccccn4)C(=O)[C@@]3(Cc3ccccc3)[C@H]2C1=O`
Output: Met

Task: Identify whether the reported hERG current change (%, negative = inhibition) at 10uM of the following compound is -20% or greater: `CCc1cc2cccc(C)c2nc1SCC(=O)NNC(=O)c1ccco1`
Output: Met

Task: Identify whether the reported hERG current change (%, negative = inhibition) at 10uM of the following compound is -20% or greater: `S=C(NCCc1ccccc1)N1CCCC1`
Output: Met

Task: Identify whether the reported hERG current change (%, negative = inhibition) at 10uM of the following compound is -20% or greater: `BrC(=C\c1ccccc1)/C=N/N1CCN(Cc2ccccc2)CC1`
Output: Met

Task: Identify whether the reported hERG current change (%, negative = inhibition) at 10uM of the following compound is -20% or greater: `CCc1cc2ccc(C)cc2nc1SCC(=O)NNC(=O)c1ccco1`
Output: Met

Task: Identify whether the reported hERG current change (%, negative = inhibition) at 10uM of the following compound is -20% or greater: `CCc1cc2cc(C)ccc2nc1SCC(=O)NNC(=O)c1ccco1`
Output: Met

###

experimental_system: human ether-à-go-go-related gene (hERG) potassium channel (human);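 further: peak tail current of the secondary pulse compared with the same well before compound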
assay_name: primary screen, population patch clamp on CHO cells stably expressing hERG; higher = less effect of the substance
In all, about 310,000 compounds went through this assay and about 14,000 (4.5%) showed an effect of 50% or more. The effect is printed as a negative number. The sample holds strong results, similar compounds and a random draw of the others, so the mix is not that of the screen.
Here the recorded hERG current change (%, negative = inhibition) at 10uM is given for each entry.
Response body: numeric value in %, unit text excluded.

Example molecules with recorded hERG current change (%, negative = inhibition) at 10uM:
Task: Field request: hERG current change (%, negative = inhibition) at 10uM | item: CC1CCCCC1NC(=O)CCS(=O)(=O)c1cc2c(cc1Cl)NC(=O)CO2 (stereo not shown)
Output: -30.5

Task: Field request: hERG current change (%, negative = inhibition) at 10uM | item: `Cc1cc2c(cc1S(=O)(=O)CCC(=O)Nc1cccc(C(F)(F)F)c1)OCC(=O)N2`
Output: -54

Task: Field request: hERG current change (%, negative = inhibition) at 10uM | item: `CCNC(=O)C(=O)N1CCC2(CC1)OCCN2S(=O)(=O)c1ccc(C)cc1`
Output: 2.81

Task: Field request: hERG current change (%, negative = inhibition) at 10uM | item: `O=C(Nc1cc(S(=O)(=O)N2CCOCC2)ccc1N1CCCCC1)c1ccc(Cl)cc1`
Output: -1.07

Task: Field request: hERG current change (%, negative = inhibition) at 10uM | item: `CCOc1ccc(/C=C(\C#N)C(=O)c2c(C)[nH]c3ccccc23)cc1OC`
Output: -4.5

Continuing:
Task: Field request: hERG current change (%, negative = inhibition) at 10uM | item: `O=C(Nc1ccccc1F)Nc1cc(S(=O)(=O)N2CCOCC2)ccc1N1CCCC1`
Output: -19

Task: Field request: hERG current change (%, negative = inhibition) at 10uM | item: `O=S(=O)(c1ccc(-n2cnnn2)cc1)N1CCN(c2ccccc2F)CC1`
Output: -3.2

Task: Field request: hERG current change (%, negative = inhibition) at 10uM | item: CC(C)Oc1ccc(CNC2CCOC(C)(C)C2)cc1 (stereo not shown)
Output: 18

Task: Field request: hERG current change (%, negative = inhibition) at 10uM | item: `O=C(Nc1cccc(Cl)c1)Nc1cc(S(=O)(=O)N2CCOCC2)ccc1N1CCCC1`
Output: -38.9

Task: Field request: hERG current change (%, negative = inhibition) at 10uM | item: `Cc1ccc(/C=N/NC(=O)c2cc(C)oc2C)cc1`
Output: 4.58

Task: Field request: hERG current change (%, negative = inhibition) at 10uM | item: `O=C(Nc1ccc(Cl)c(Cl)c1)Nc1cc(S(=O)(=O)N2CCOCC2)ccc1N1CCCC1`
Output: -16.6

Task: Field request: hERG current change (%, negative = inhibition) at 10uM | item: `CC1CCN(CC(=O)n2c3c(c4ccccc42)CCCC3)CC1.Cl`
Output: 0.546

Task: Field request: hERG current change (%, negative = inhibition) at 10uM | item: `Cc1ccc(Nc2nnc(-c3ccc4c(c3)OCO4)o2)c(C)c1`
Output: 19.8
